// data source = ChEMBL document CHEMBL1139464

test-target: Tyrosine-protein kinase Lck (Homo sapiens)
assay-method-text: Inhibition of protein kinase p56 at 10 uM
Below: a set of entries, each annotated with reported inhibition.

{"columns": ["given-smiles", "test-target", "inhibition"],
 "data": [
  ["CCn1c(=O)sn(C2CCCCC2)c1=O", "Tyrosine-protein kinase Lck (Homo sapiens)", "< 10%"],
  ["CCOC(=O)Cn1c(=O)sn(C)c1=O", "Tyrosine-protein kinase Lck (Homo sapiens)", "< 10%"]
]}

-- ask Form field - read-out: inhibition; system: Tyrosine-protein kinase Lck (Homo sapiens); submitted item: `Cn1sc(=O)n(-c2ccc(C(F)(F)F)cc2)c1=O`
-- reply < 10%
